- measuredOn: OATP1B1 (Homo sapiens, UniProt Q9Y6L6)
- Sequence (Q9Y6L6 1-691): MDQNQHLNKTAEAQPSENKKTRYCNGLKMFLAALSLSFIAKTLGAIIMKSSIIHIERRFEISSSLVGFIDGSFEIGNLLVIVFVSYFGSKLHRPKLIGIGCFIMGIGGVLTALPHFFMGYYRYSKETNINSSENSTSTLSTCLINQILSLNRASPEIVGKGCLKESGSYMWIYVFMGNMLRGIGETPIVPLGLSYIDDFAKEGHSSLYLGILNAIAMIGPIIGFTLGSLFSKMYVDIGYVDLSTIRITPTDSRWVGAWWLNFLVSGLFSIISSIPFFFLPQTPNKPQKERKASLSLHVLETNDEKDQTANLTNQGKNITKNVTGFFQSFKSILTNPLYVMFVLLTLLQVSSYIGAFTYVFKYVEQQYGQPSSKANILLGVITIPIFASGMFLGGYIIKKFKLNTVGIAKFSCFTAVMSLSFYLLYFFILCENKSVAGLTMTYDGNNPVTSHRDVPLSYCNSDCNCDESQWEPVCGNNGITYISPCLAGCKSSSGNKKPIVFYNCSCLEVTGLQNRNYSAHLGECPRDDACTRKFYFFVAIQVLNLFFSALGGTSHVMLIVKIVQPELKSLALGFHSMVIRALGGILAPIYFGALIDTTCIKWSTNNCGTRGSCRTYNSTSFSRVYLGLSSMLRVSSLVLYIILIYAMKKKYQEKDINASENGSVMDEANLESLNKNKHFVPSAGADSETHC
- runDescription: OATP1B1-mediated estrone-3-sulfate uptake in HEK293-OATP1B1 cells
pIC50: −log10 of the molar value.
readout: pIC50

molecule CCCCCn1nc(C(=O)N[C@H](C(N)=O)C(C)C)c2ccccc21 [AB-PINACA] , pIC50 observed: < 3.60

These entries and their values trace back to paper PMC7692329.
